- Target Or System: T1, cynomolgus CD38 ECD (cynomolgus, UniProt Q5VAN0 44-301, biotinylated on the AviTag during preparation)
- T1 construct: also called Cyno-CD38; Avi-Cyno CD38 ECD
- Assay Notes: SPR (Biacore 8K), antibody captured, antigen injected;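 note: antibodies held on a CM5 chip through anti-human IgG Fc, antigen in 3-fold serial dilutions, 1 min association then 10 min dissociation at 25 °C, 1:1 Langmuir global fit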
Give measured kon for each item. Keep answers brief.
Answers are plain numbers, in M⁻¹ s⁻¹.

Worked examples follow.
1. 23D1 (antibody, human IgG1, kappa, V domains shown, Rabbit-human chimeric anti-CD38: rabbit VH and VL on human IgG1 and kappa constant regions) VH: QELVESGGGLFQPGGSLALTCKASGFSLSNIYVMCWVRQAPGKGLEWIACIGTGSGDTDYATWAKGRFTISKTSSTTVTLQMTSLTAADTATYFCARDPGAGTWNLWGPGTLVTVSS VL: DIVMTQTPSSVEAAVGGTVTIKCQASQTIGSRLAWYQQKPGQPPKLLIYSASTLASGVSSRFKGSGSGTQFTLTISDLDSADAATYYCQSYYYTSTSYPNAFGGGTEVVVKR; 536000
2. 17F7 (antibody, human IgG1, kappa, V domains shown, Rabbit-human chimeric anti-CD38: rabbit VH and VL on human IgG1 and kappa constant regions) VH: QSVEESGGRLVTPGTPLTLTCTASGFSLSSYYMSWVRQAPGKGLEWIGFISKTAITYYASWARGRFTISKTSTAVDLKITSPTTEDTATYFCARVDAYSAGDLWGPGTLVTVSS VL: AQVLTQTPSSVSAAVGGTVTINCQASQSVYSDNRLSWFQQKSGQPPKLLIYSTSSLASGVPSRFSGSGSGTQFTLTISGVQSDDAASYYCQGEFICTSADCFVFGGGTEVVVKR; 1.65e+06

Kindly review the next binder as well.
Ask: Dear colleague, I am looking for the recorded kon of the following binder: 27F6 (antibody, human IgG1, kappa, V domains shown, Rabbit-human chimeric anti-CD38: rabbit VH and VL on human IgG1 and kappa constant regions) VH: QSLEESGGGLVKPGASLTLTCKASGFSFSSGCDMCWVRQAPGKGLEWISCIYTGSGSTYYANWAKGRFTISRTSSTTVTLQMTSLTAADTATYFCAGDSDYLGLWGPGTLVTVSS VL: DIVMTQTPSSVEAAVGGTVTIKCQASQNIGNYLAWYQQKPGQPPKVLIYRASTLASGVPSRFKGSGSGTHFTLTISDLESADAATYYCQSYYYTTDDNYRSWAFGGGTEVVVKR
Reply: 1.02e+06

The values you see were collected from patent US20220002432A1.
